A collection of molecules and their measured cell count
- EXPERIMENTAL_DETAILS: supercomplex reporter luminescence per Hoechst cell count – Hoechst nuclei count (AID 1645838);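 also: control cybrid cells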
- CONDITION_SET: Cells, luminescence/Hoechst cell count ratio, measured here: cell number, Hoechst nuclei count, library stock concentration (final well concentration not given) 400 uM
Among all 2,000 compounds or so, about 100 (5%) were called active. For the sample, actives were picked, then their nearest neighbours and some compounds at random.
Number, no unit, nothing else.

Solved entries (count: 8):
MOLECULE: CCCCCC(=O)Nc1c(C)cc(Br)cc1C
PROPERTY_LABEL: cell count
REPORTED_RESULT: 4850
--
MOLECULE: c1ccc(Cc2ccncc2)cc1
PROPERTY_LABEL: cell count
REPORTED_RESULT: 5030
--
MOLECULE: COCCOc1ccc2c(c1)ncn2-c1ccc2cccc(N3CCC(N)CC3)c2n1
PROPERTY_LABEL: cell count
REPORTED_RESULT: 5070
--
MOLECULE: Cc1ccc(NC(=O)c2cccc(C(C)(C)C#N)c2)cc1Nc1ccc2ncn(C)c(=O)c2c1
PROPERTY_LABEL: cell count
REPORTED_RESULT: 3410
--
MOLECULE: CNC(=O)Nc1ccc(-c2nc(N3CC4CCC(C3)O4)c3cnn(C4CCC5(CC4)OCCO5)c3n2)cc1
PROPERTY_LABEL: cell count
REPORTED_RESULT: 1780
--
MOLECULE: CCOc1ccc(-n2c(C(C)N(Cc3cccnc3)C(=O)Cc3ccc(OC(F)(F)F)cc3)nc3ncccc3c2=O)cc1 (stereo unspecified)
PROPERTY_LABEL: cell count
REPORTED_RESULT: 4820
--
MOLECULE: Cc1ccc(C(=O)Nc2cccc(C(F)(F)F)c2)cc1Nc1nc(-c2cccnc2)nc2c1cnn2C
PROPERTY_LABEL: cell count
REPORTED_RESULT: 5440
--
MOLECULE: Cn1cc(C=C2C(=O)Nc3cccnc32)c2ccccc21
PROPERTY_LABEL: cell count
REPORTED_RESULT: 5320

Entry under test: CC(C)C1C(=O)NC(CCCN=C(N)N)C(=O)NCC(=O)NC(CC(=O)O)C(=O)NC(Cc2ccccc2)C(=O)N1C (stereo unspecified) . Its cell count was 5060

Entry under test: CCC(CO)Nc1nc(NCc2ccccc2)c2ncn(C(C)C)c2n1 (stereo unspecified) . Its cell count was 4780

Entry under test: COc1cc2c(NC3CCN(CC4CCCCC4)CC3)nc(N3CCCN(C(C)C)CC3)nc2cc1OCCCN1CCCCC1 . Its cell count was 6560

* * *

- EXPERIMENTAL_DETAILS: supercomplex reporter luminescence per Hoechst cell count – Hoechst nuclei count (AID 1645838);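 also: control cybrid cells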
- CONDITION_SET: Cells, luminescence/Hoechst cell count ratio, measured here: cell number, Hoechst nuclei count
Among all 2,000 compounds or so, about 100 (5%) were called active. This is one part of a sample in which actives are shown more often than they occur.
A collection of compounds and their measured cell count
Number, no unit, nothing else.

Solved entries (count: 4):
COMPOUND: CCCCC(C)(C)[C@H](O)/C=C/[C@H]1C=CC(=O)[C@@H]1CCCCCCC(=O)O
cell count: 4930

COMPOUND: O=C1C(c2ccccc2)N(c2ccc(Br)cc2)C(=O)N1c1ccc(Br)cc1 (stereo not given)
cell count: 4960

COMPOUND: CCCCCOc1ccccc1C(O)CC#CCCCC(=O)OC (stereo not given)
cell count: 4890

COMPOUND: CCCCC/C=C\C/C=C\CCCCCCCC(=O)O[C@H](COC(=O)CCCCCCCCCCCCCCC)COP(=O)(O)OCCN
cell count: 5090

Now consider the entry below.
Entry under test: CCCCC[C@H](O)/C=C/[C@@H]1[C@H](CCCCCCC(=O)O)[C@@H](O)C[C@H]1O . Its cell count was 4940

* * *

- EXPERIMENTAL_DETAILS: supercomplex reporter luminescence per Hoechst cell count – Hoechst nuclei count (AID 1645838);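 also: control cybrid cells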
- CONDITION_SET: Cells, luminescence/Hoechst cell count ratio, measured here: cell number, Hoechst nuclei count, library stock concentration (final well concentration not given) 278 uM
The campaign covered roughly 2,000 compounds. About 100 (5%) were called active. The sample holds actives, similar compounds and a random draw of the others, so the mix is not that of the screen.
Label 1 (yes) when cell count is at or above 5000; anything below gets 0 (no).

Here's what some known entries look like.
MOLECULE: CN(C)CCC1(c2ccc(Cl)cc2)Cc2ccccc2C(=O)O1 (stereo not given)
ASSIGNED_CLASS: 1 (yes)

MOLECULE: COc1cc2nc(N3CCCN(C)CC3)nc(NC3CCN(Cc4ccccc4)CC3)c2cc1OC
ASSIGNED_CLASS: 1 (yes)

MOLECULE: COc1ccc(C(=O)C(=O)c2ccccc2)cc1
ASSIGNED_CLASS: 0 (no)

MOLECULE: Nc1ccccc1NC(=O)c1ccc(CNC(=O)OCc2cccnc2)cc1
ASSIGNED_CLASS: 0 (no)

Consider the additional molecule presented here.
In: Record CC(Sc1nc2ccccc2[nH]1)C(=O)NN=Cc1cc(Br)ccc1O (stereo not given) ; criterion: cell count no lower than 5000. Met?
Out: 1 (yes)

* * *

- EXPERIMENTAL_DETAILS: supercomplex reporter luminescence per Hoechst cell count – Hoechst nuclei count (AID 1645838);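 also: control cybrid cells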
- CONDITION_SET: Cells, luminescence/Hoechst cell count ratio, measured here: cell number, Hoechst nuclei count
The campaign covered roughly 2,000 compounds. About 100 (5%) were called active. For the sample, actives were picked, then their nearest neighbours and some compounds at random.
A collection of compounds and their measured cell count
Number, no unit, nothing else.

COMPOUND: CCCCCC(O)/C=C/C=O (centres undefined)
cell count: 5350
--
COMPOUND: COC(=O)CCCCCC[C@@H]1[C@@H](CCC(O)C#Cc2ccccc2F)[C@H](O)C[C@@H]1O (some centres undefined)
cell count: 5390
--
COMPOUND: CCCCCC(=O)CC[C@H]1C(=O)C=C[C@@H]1C/C=C\CCCC(=O)O
cell count: 5090
--
COMPOUND: CCCCC(C)(O)C/C=C/[C@H]1[C@H](O)CC(=O)[C@H]1CCCCCCC(=O)OC (some centres undefined)
cell count: 5650

Entry under test: CCCCCC(=O)/C=C/C=O . Its cell count was 4570

Entry under test: CCCCCCCC/C=C\CCCCCCCC(=O)NCC . Its cell count was 5660

Entry under test: CCCCCCCCCCCCCCCCSC[C@H](COP(=O)([O-])OCC[N+](C)(C)C)NC(=O)CCCCCCCCCCCCCCC . Its cell count was 5820

Entry under test: CCCCCC/C=C\CCCCCCCC(=O)OCC . Its cell count was 5340

Entry under test: CC/C=C\C/C=C\C/C=C\C/C=C\C/C=C\CCCC(=O)O[C@H](COCCCCCCCCCCCCCCCC)COP(=O)([O-])OCC[N+](C)(C)C . Its cell count was 5300

Entry under test: CCCCC[C@H](O)/C=C/[C@@H]1[C@@H](CCCCCCC(=O)O)[C@H](O)C[C@@H]1O . Its cell count was 5440

Entry under test: CCCCCCCCCCCSCC(=O)O . Its cell count was 5540

Entry under test: CCCCCCCCCCCCCCP(=O)(O)O . Its cell count was 4360

Entry under test: CCCCC[C@H](O)/C=C/[C@H]1[C@H](O)CC(=O)[C@@H]1C/C=C/CCCC(=O)O . Its cell count was 4880

Entry under test: C[C@@H](O)CCC[C@H](O)/C=C/C1=C(C/C=C\CCCC(=O)O)C(=O)CC1 . Its cell count was 5100

* * *

A collection of compounds and their measured z-score
- EXPERIMENTAL_DETAILS: supercomplex reporter luminescence per Hoechst cell count – Hoechst nuclei count (AID 1645838);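 also: control cybrid cells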;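 as to z-score: higher means more mitochondrial supercomplex formation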
- CONDITION_SET: Cells, luminescence/Hoechst cell count ratio, library stock concentration (final well concentration not given) 278 uM, stronger effect = higher value
Among all 2,000 compounds or so, about 100 (5%) were called active. The sample as a whole holds a higher share of actives than the screen did.
Number, no unit, nothing else.

Solved entries (count: 3):
COMPOUND: O=c1c(-c2ccc(O)c(O)c2)coc2cc(O)ccc12
REPORTED_RESULT: -0.0571
--
COMPOUND: COc1cc2c(NC3CCN(C(C)C)CC3)nc(C3CCCCC3)nc2cc1OCCCN1CCCC1
REPORTED_RESULT: -0.34
--
COMPOUND: NC(=O)c1cnc(NCCc2ccc(O)c(Cl)c2)nc1NCc1ccccc1
REPORTED_RESULT: -0.967

Entry under test: CN1CCc2c(c3ccccc3n2Cc2ccc(C(=O)NO)cc2)C1 . Its z-score was -0.118

* * *

- EXPERIMENTAL_DETAILS: supercomplex reporter luminescence per Hoechst cell count – Hoechst nuclei count (AID 1645838);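 also: control cybrid cells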;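 as to z-score: higher means more mitochondrial supercomplex formation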
- CONDITION_SET: Cells, luminescence/Hoechst cell count ratio, library stock concentration (final well concentration not given) 80 uM, stronger effect = higher value
The campaign covered roughly 2,000 compounds. About 100 (5%) were called active. The entries come from a sample that favours actives as a whole.
PROPERTY_LABEL: z-score
Number, no unit, nothing else.

Solved entries (count: 5):
COMPOUND: O=C(O)c1cc(C(F)(F)F)ccc1N1CCC(OCc2ccccn2)C1 (centres undefined)
z-score: -0.188
//
COMPOUND: CC1CN(CC(=O)Nc2ccc3c(c2)Cc2cccc(-c4cc(=O)cc(N5CCOCC5)o4)c2S3)CC(C)O1 (centres undefined)
z-score: -0.376
//
COMPOUND: CCN(CC)Cc1ccc(C(=O)N(CCc2ccccc2OC)C2CCNC2)cc1 (centres undefined)
z-score: 0.157
//
COMPOUND: CCCNC1CCc2nc(N)sc2C1 (centres undefined)
z-score: -0.399
//
COMPOUND: OCc1cc(C(O)CNCCCCCCOCCCCc2ccccc2)ccc1O (centres undefined)
z-score: 1.97

Entry under test: CC1CN(Cc2ccccc2)CC1c1nc2c(cnn2C2CCOCC2)c(=O)[nH]1 (centres undefined) . Its z-score was -0.245

Entry under test: CC(C)(C)OC(=O)N1CCC(OC2CCNCC2)CC1 . Its z-score was 0.0198

Entry under test: CC(N)c1ccc(C(=O)Nc2ccnc3[nH]ccc23)cc1 (centres undefined) . Its z-score was 0.0935

Entry under test: O=c1cc(-c2cccc3c2Sc2ccccc2S3)oc(N2CCOCC2)c1 . Its z-score was -0.486
